Here's a roundup of pIC50 values tested on Beta-secretase 2 (Homo sapiens, UniProt Q9Y5Z0), taken from various published works.
pIC50: −log10 of the molar value.
endpoint: pIC50

compound	experimentalResult
Cc1nc(C(=O)Nc2cccc([C@]3(C)CC(=O)N(C)C(N)=N3)c2)co1	8.05
CN1C(=O)C(C)(C)[C@@](C)(c2cccc(NC(=O)c3nccc4ccsc34)c2)N=C1N	6.43

(P) CC1(C)OCC(N)=N[C@](C)(c2cc(Nc3cncc(F)c3)ccc2F)C1(F)F
(Q) COC[C@@H](C)NCc1ccc(F)c([C@]23CO[C@@H](c4cnn(C)c4)C[C@H]2CSC(N)=N3)c1 (relative stereo)
(R) CC(C)OC[C@H]1C[C@H]2[C@@H](C)SC(N)=N[C@@]2(c2ccc(F)cc2F)CO1
(S) Cc1nc(OCC(F)(F)F)cnc1C(=O)Nc1ccc(F)c([C@@]2(C)N=C(N)[C@@]3(CF)CC[C@@H]2S3(=O)=O)c1
(T) Cc1ccc(C(=O)Nc2cccc([C@]3(C)CC(=O)N(C)C(N)=N3)c2)cc1
Place the items in sequence of falling pIC50. Answer format: list of labels, ordered as asked. Q, S, T, P, R

(I) CN1C(=O)C[C@@](C)(c2cccc(NC(=O)c3csc(C(F)(F)F)n3)c2)N=C1N
(II) Cc1nc(C(=O)Nc2cccc([C@]3(C)CC(=O)N(C)C(N)=N3)c2)c(C)o1
Please choose the item with the lower pIC50 value from this pair: I and II Select an item and report its label. I
(I: 5.81, II: 7.01)
